Test system: HT29
Assay: WST-1 cytotoxicity, 72 h
Assay type: cell-based
Conditions: HT29, 72 h, mean ± SEM
measuredQuantity: pIC50
Give only the number. pIC50 is defined as minus log10 of concentration in molar units.

• N[C@H]1CCCC[C@@H]1N.O=[N+]([O-])[O-].O=[N+]([O-])[O-].[OH-].[OH-].[Pt+4].c1cnc2c(c1)ccc1cccnc12 = 5.35
• Cc1c(C)c2cccnc2c2ncccc12.N[C@H]1CCCC[C@@H]1N.O=[N+]([O-])[O-].O=[N+]([O-])[O-].[Pt+2] [Pt^II56MESS] = 6.74
• N[C@H]1CCCC[C@@H]1N.O=[N+]([O-])[O-].O=[N+]([O-])[O-].[Pt+2].c1cnc2c(c1)ccc1cccnc12 = 6.12
• N.N.[Cl][Pt][Cl] [Cisplatin, cisplatin] = 4.11

Enquiry: For the compound shown here, Cc1c(C)c2cccnc2c2ncccc12.N[C@H]1CCCC[C@@H]1N.O=[N+]([O-])[O-].O=[N+]([O-])[O-].[OH][Pt+2][OH] [Pt^IV56MESS(OH)2] , give the reported pIC50.
Return: 5.90

Enquiry: Would you kindly repeat that for Cc1cc2cccnc2c2ncccc12.N[C@H]1CCCC[C@@H]1N.O=[N+]([O-])[O-].O=[N+]([O-])[O-].[OH][Pt+2][OH] [Pt^IV5MESS(OH)2] ?
Return: 5.44

Enquiry: Would you kindly repeat that for Cc1cc2cccnc2c2ncccc12.N[C@H]1CCCC[C@@H]1N.O=[N+]([O-])[O-].O=[N+]([O-])[O-].[Pt+2] [Pt^II5MESS] ?
Return: 6.26

FYI, the data here is from paper PMC11274883.
